# test target: human GnRH receptor (Homo sapiens, UniProt P30968)
# Construct: The cDNA for the human GnRH receptor is cloned into the plasmid expression vector, pcDNA 3; expressed in transfected cells; host or cells: HEK 293 cells, stably transfected (pcDNA 3); membrane preparation
# Sequence (P30968 1-328): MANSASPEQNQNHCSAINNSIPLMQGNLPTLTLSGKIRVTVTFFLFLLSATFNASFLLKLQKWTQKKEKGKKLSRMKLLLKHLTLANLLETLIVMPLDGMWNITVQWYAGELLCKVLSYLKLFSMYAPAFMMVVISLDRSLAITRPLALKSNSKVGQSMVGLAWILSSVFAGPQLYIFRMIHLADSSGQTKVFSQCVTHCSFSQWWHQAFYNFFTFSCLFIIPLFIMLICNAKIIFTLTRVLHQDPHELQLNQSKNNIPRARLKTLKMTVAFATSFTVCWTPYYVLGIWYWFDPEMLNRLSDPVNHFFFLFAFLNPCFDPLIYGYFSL
# protocol text: GnRH receptor competitive radioligand binding assay (125I-GnRH-A, HEK 293 cell membranes)
# measurement conditions: compound at 10 μM; crude compounds; 125I-GnRH-A; lower value = higher inhibition; read-out: % Remaining 2nd Test (percent of specific binding remaining)
metric: remaining activity at 10 µM (%)

See these solved cases before continuing.
* N=C(N)NCc1ccc(CN(Cc2ccc(OCc3ccccc3)c(OCc3ccccc3)c2)C(=O)c2ccc(Cl)nc2)cc1 | 54
* COCC(=O)N(Cc1cc2c(cc1C)C(C)(C)CCC2(C)C)CC1CCC(CNC(=N)N)CC1 (centres unmarked) | 35
* Cc1cc2c(cc1CN(CC1CCC(CNC(=N)N)CC1)C(=O)Cc1ccccc1)C(C)(C)CCC2(C)C (centres unmarked) | 54
* CCOc1cc(OCC)c(OCC)cc1CN(Cc1ccc(CNC(=N)N)cc1)C(=O)c1ccco1 | 57
* Cc1cc2c(cc1CN(CC1CCCC(CNC(=N)N)C1)C(=O)c1ccc(Cl)nc1)C(C)(C)CCC2(C)C (centres unmarked) | 60
* N=C(N)NCC1CCCC(CN(Cc2ccc(OCc3ccccc3)c(OCc3ccccc3)c2)C(=O)c2ccccc2)C1 (centres unmarked) | 55
* Cc1cc(C(=O)N(Cc2cc3c(cc2C)C(C)(C)CCC3(C)C)CC2CCC(CNC(=N)N)CC2)n(C(C)(C)C)n1 (centres unmarked) | 56
* CCOC(=O)C(=O)N(Cc1cc2c(cc1C)C(C)(C)CCC2(C)C)CC1CCC(CNC(=N)N)CC1 (centres unmarked) | 52

I: Cc1cc2c(cc1CN(Cc1ccc(CNC(=N)N)cc1)C(=O)C1CCCCC1)C(C)(C)CCC2(C)C
II: Cc1cc2c(cc1CN(CCCCNC(=N)N)C(=O)c1ccco1)C(C)(C)CCC2(C)C
Enquiry: Between I and II , whose measured remaining activity at 10 µM reads higher? Record your answer as the label of the chosen record.
Return: I

I: Cc1cc2c(cc1CN(CC1CCCC(CNC(=N)N)C1)C(=O)C1CCCCC1)C(C)(C)CCC2(C)C (centres unmarked)
II: N=C(N)NCCCCN(CC12CC=CCC1C1CC=CCC1O2)C(=O)c1ccc2ccccc2c1 (centres unmarked)
Enquiry: Between I and II , whose measured remaining activity at 10 µM reads higher? Record your answer as the label of the chosen record.
Return: I
(I: 59%, II: 37%)

----------
# test target: human GnRH receptor (Homo sapiens)
# Construct: The cDNA for the human GnRH receptor is cloned into the plasmid expression vector, pcDNA 3; expressed in transfected cells; host or cells: HEK 293 cells, stably transfected (pcDNA 3); membrane preparation
# protocol text: GnRH receptor competitive radioligand binding assay (125I-GnRH-A, HEK 293 cell membranes)
# measurement conditions: compound at 10 μM; crude compounds; 125I-GnRH-A; lower value = higher inhibition; read-out: % Remaining 2nd Test (percent of specific binding remaining)
metric: remaining activity at 10 µM (%)

• CC(C)(C)c1ccc(CN(CCCCNC(=N)N)C(=O)c2cccc3ccccc23)cc1 = 50
• Cc1cc2c(cc1CN(CC1CCCC(CNC(=N)N)C1)C(=O)c1cccc3ccccc13)C(C)(C)CCC2(C)C (centres unmarked) = 55
• CC(=O)N(Cc1ccc(CNC(=N)N)cc1)Cc1cc2c(cc1C)C(C)(C)CCC2(C)C = 60
• Cc1cc2c(cc1CN(Cc1ccc(CNC(=N)N)cc1)C(=O)c1ccc(Cl)nc1)C(C)(C)CCC2(C)C = 47
• Cc1cc2c(cc1CN(CCCCNC(=N)N)C(=O)c1cccc3ccccc13)C(C)(C)CCC2(C)C = 57
